- Tested on: OVCAR-3 ovarian
- EXPERIMENT DESCRIPTION: NCI-60 one-dose screen, 48 h (100 = growth as untreated, 0 = no growth, -100 = all killed)
- PROTOCOL CONDITIONS: 10 µM unless noted
This is part of a sample that, as a whole, favours compounds with a hit. Of some 83,000 tested, about 20% had one in any assay.
Binary call on growth with cut-off 10%: strictly below means Y, and equality or higher means N.

MOLECULE | ASSIGNED CATEGORY
Cc1ccc(/C=C2\COc3ccc(O)c(O)c3C2=O)cc1 | Y
N=c1c2c(-c3ccccc3)c(-c3ccccc3)oc2ncn1NC(=O)c1cccnc1 | N
COc1ccc(-c2nn3c(-c4cc(F)c(Cl)cc4Cl)nnc3s2)cc1 | N
COc1cc(CNC(=O)CCCC/C=C/C(C)C)ccc1OCc1cn(-c2ccc([N+](=O)[O-])cc2)nn1 | N
Cc1ccc(-c2nc3nc(-c4ccc(F)cc4)nc(N4CCCNCC4)c3o2)cc1 | Y
COc1ccc(/C(C)=C(\c2ccc(OCCN3CCCCCC3)cc2)c2ccc(OC(=O)C3CCCCC3)cc2)cc1 | Y
C=CCOc1ccc(/C=C2\SC(=S)N(CCc3ccc(O)cc3)C2=O)cc1 | N
COc1ccc(-c2ccc(-c3ccc(C(=N)N)cn3)o2)cc1Cl | Y
Nc1nc(Nc2ccc(F)cc2)nn1C(=O)c1cc(Cl)ccc1Cl | N
CCNC(=O)Nc1ncccc1OCc1ccc(F)cc1 | N
CN1CCN(CCNC(=O)c2cccc(CN3c4cccc5c4C(=Cc4cccnc43)N(C)C5=O)c2)CC1 | N
COc1ccc(/C=C/C(=O)c2cc3c(N)c(C(=O)Nc4ccccc4)sc3nc2C)cc1 | Y
COc1ccc(-c2ccccc2)cc1-c1c(Nc2cc(Cl)cc(Cl)c2O)c(=O)c1=O | Y
COC(=O)c1c2c(c(C)[n+]([O-])c1C)C(=O)C(NCCN1CCOCC1)=CC2=O | Y
Cc1ccc2[nH]c(=S)[nH]c(=O)c2c1 | N
O=C(Cc1ccc(F)cc1)c1ccccc1 | N
CCCCCC#CC1OC23CCCCC2C(C#N)(C(=N)O3)C1(C#N)C#N (stereo unspecified) | N
O=C1c2cc3c(cc2-c2c1c1ccc(Cl)cc1c(=O)n2CCCn1ccnc1)OCO3 | Y
Clc1ccc(CNc2ccc3nc(CCC4CCCCC4)[nH]c3c2)cc1 | N
COc1c(NC=O)c2c(c([N+](=O)[O-])c1OC)C(=O)OC2 | N
